# assay target: Epidermal growth factor receptor (Homo sapiens, UniProt P00533)
# Sequence (P00533 whole entry): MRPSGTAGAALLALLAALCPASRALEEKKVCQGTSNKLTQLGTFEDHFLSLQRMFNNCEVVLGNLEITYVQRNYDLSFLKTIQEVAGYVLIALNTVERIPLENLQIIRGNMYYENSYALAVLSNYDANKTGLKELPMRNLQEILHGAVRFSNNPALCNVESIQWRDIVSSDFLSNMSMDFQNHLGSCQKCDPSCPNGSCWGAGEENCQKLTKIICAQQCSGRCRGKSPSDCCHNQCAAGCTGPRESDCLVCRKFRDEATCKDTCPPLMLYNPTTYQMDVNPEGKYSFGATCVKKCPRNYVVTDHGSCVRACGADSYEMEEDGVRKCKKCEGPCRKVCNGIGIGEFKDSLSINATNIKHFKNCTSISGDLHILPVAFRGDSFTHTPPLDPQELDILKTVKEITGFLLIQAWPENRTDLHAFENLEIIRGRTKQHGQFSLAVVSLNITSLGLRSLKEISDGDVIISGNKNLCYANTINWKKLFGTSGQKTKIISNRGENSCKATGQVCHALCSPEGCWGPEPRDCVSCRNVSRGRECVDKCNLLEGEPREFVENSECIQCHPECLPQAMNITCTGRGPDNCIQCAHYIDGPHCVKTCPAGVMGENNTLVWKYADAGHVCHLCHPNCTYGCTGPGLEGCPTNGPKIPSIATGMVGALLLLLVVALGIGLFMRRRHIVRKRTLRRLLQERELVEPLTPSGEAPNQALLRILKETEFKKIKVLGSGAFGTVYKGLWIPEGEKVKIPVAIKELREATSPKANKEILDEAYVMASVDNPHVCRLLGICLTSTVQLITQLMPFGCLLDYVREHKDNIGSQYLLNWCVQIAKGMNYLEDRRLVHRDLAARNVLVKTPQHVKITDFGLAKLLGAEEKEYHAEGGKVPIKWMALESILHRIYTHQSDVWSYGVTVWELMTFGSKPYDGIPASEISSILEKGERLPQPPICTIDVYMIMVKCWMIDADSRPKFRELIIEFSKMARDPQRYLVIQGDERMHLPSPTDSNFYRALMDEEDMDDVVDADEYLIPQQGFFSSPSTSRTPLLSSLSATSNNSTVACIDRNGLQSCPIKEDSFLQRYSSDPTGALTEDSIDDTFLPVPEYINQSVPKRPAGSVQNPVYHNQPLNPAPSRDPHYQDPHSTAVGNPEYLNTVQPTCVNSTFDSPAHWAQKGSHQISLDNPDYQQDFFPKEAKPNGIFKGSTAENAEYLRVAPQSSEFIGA
# protocol summary: Inhibition of human EGFR using poly[Glu:Tyr] (4:1) as substrate in presence of [gamma33P]ATP by radiometric HotSpot assay
recorded endpoint: IC50 (nM)

Consider the reported IC50 for these compounds:
>  <smiles str>
OC[C@@H](Nc1ncnc2[nH]c(-c3ccncc3)cc12)c1ccccc1

>  <IC50 / nM>
2

$$$$
>  <smiles str>
[2H]C([2H])([2H])Oc1ccccc1-c1cc2c(N[C@H](CO)c3ccccc3)ncnc2[nH]1

>  <IC50 / nM>
0.4

$$$$
>  <smiles str>
OC[C@@H](Nc1ncnc2[nH]c(-c3ccccc3)cc12)c1ccccc1

>  <IC50 / nM>
0.8

$$$$

[P] CCOc1ccccc1-c1cc2c(N[C@H](CO)c3ccccc3)ncnc2[nH]1
[Q] CN(C)CCNCc1cc(-c2cc3c(N[C@H](CO)c4ccccc4)ncnc3[nH]2)ccc1F
Lookup: Hi there! Just curious which has the higher IC50 between P and Q . Response format: the label of the selected entry.
Found: Q

[A] C[C@@H](Nc1ncnc2[nH]c(-c3ccccc3OC(F)F)cc12)c1ccccc1
[B] COc1cc(CNCCN2CCNCC2)ccc1-c1cc2c(N[C@H](CO)c3ccccc3)ncnc2[nH]1
Lookup: For the pair A and B , which entry has the numerically smaller recorded IC50? Response format: the label of the selected entry.
Found: B
(B: 0.1 nM, A: 0.8 nM)

* * *

# assay target: Epidermal growth factor receptor (Homo sapiens)
# condition label: dose 100.0 nM
# Description: Inhibition of human EGFR at 100 nM using poly[Glu:Tyr] (4:1) as substrate in presence of [gamma33P]ATP by radiometric HotSpot assay relative to control
recorded endpoint: inhibition (%)

Consider the reported inhibition for these compounds:
>  <smiles str>
CN(C)CCNCc1ccc(-c2cc3c(N[C@H](CO)c4ccccc4)ncnc3[nH]2)cc1F

>  <recorded endpoint>
inhibition

>  <endpoint result>
99

$$$$
>  <smiles str>
COc1cc(NS(C)(=O)=O)ccc1-c1cc2c(N[C@H](CO)c3ccccc3)ncnc2[nH]1

>  <recorded endpoint>
inhibition

>  <endpoint result>
100

$$$$
>  <smiles str>
COc1cc(CNCCS(C)(=O)=O)ccc1-c1cc2c(N[C@H](CO)c3ccccc3)ncnc2[nH]1

>  <recorded endpoint>
inhibition

>  <endpoint result>
100

$$$$
>  <smiles str>
CN(C)CCNCc1ccc(-c2cc3c(N[C@H](CO)c4ccccc4)ncnc3[nH]2)cc1

>  <recorded endpoint>
inhibition

>  <endpoint result>
97

$$$$

[I] C[C@@H](Nc1ncnc2[nH]c(-c3ccc(NS(C)(=O)=O)cc3)cc12)c1ccccc1
[II] Cn1c(-c2ccccc2)cc2c(N[C@H](CO)c3ccccc3)ncnc21
Lookup: Hi there! Just curious which has the higher inhibition between I and II . Response format: the label of the selected entry.
Found: I

* * *

# assay target: Tyrosine-protein kinase Lck (Homo sapiens) (UniProt P06239)
# Sequence (P06239 2-509 limits assumed): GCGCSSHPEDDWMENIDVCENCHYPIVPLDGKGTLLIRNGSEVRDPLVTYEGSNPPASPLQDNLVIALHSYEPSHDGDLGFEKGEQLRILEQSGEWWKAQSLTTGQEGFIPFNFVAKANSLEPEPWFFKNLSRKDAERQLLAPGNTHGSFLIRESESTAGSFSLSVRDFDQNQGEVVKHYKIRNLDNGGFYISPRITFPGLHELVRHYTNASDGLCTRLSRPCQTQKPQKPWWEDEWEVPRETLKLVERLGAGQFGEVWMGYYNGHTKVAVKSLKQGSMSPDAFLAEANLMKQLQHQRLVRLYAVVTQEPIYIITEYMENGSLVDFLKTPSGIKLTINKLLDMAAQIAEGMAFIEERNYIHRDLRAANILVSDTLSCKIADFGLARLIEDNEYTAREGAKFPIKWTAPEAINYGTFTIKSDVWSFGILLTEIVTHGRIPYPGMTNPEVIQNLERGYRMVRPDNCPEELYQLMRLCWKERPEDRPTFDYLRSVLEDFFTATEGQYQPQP
# condition label: dose 500.0 nM, time 1.0 hrs
recorded endpoint: inhibition (%)

Consider the reported inhibition for these molecules:
>  <smiles str>
COc1ccccc1-c1cc2c(N[C@H](CO)c3ccccc3)ncnc2[nH]1

>  <inhibition, %>
17

$$$$
>  <smiles str>
OC[C@@H](Nc1ncnc2[nH]c(-c3ccccc3)cc12)c1ccccc1

>  <inhibition, %>
13

$$$$
>  <smiles str>
OCC[C@@H](Nc1ncnc2[nH]c(-c3ccccc3)cc12)c1ccccc1

>  <inhibition, %>
29

$$$$

[P] CN(C)CCNCc1ccc(-c2cc3c(N[C@H](CO)c4ccccc4)ncnc3[nH]2)cc1F
[Q] CCOc1ccccc1-c1cc2c(N[C@H](CO)c3ccccc3)ncnc2[nH]1
Lookup: Hi there! Just curious which has the higher inhibition between P and Q . Response format: the label of the selected entry.
Found: P
(P: 81%, Q: 26%)
